Values from patent US20240279302A1

- Tested on: HEK293 cells expressing olfactory receptor
- test-summary: Luciferase assay: ligand responsiveness of consensus vs original olfactory receptors
- Assay type: cell-based, human
- conditions-used: consensus design
- Protocol: For luciferase assay, a reaction solution was prepared according to composition shown in Table 4, left standing for 20 minutes in a clean bench, and then added to each well of a 96-well plate (Becton, Dickinson and Company). Subsequently, 100 μL of HEK293 cells suspended in DMEM (Nacalai Tesque, Inc.) was inoculated at 2×10^5 cells/cm^2 to each well, and cultured for 24 hours in an incubator kept at 37° C. and 5% CO2. Cells expressing no olfactory receptor (Mock) were provided as a control. […]
readout: ligand responsiveness in comparison with the original human receptor

molecule	result
consensus OR2A25 (b): consensus olfactory receptor polypeptide (protein, OR2A25 consensus-b, consensus olfactory receptor polypeptide) MGGNQTSITEFLLLGFPVGPRIQMLLFGLFSLFYVFTLLGNGTILGLISLDSRLHTPMYFFLSHLAVVDIAYACNTVPQMLVNLLHPAKPISFAGCMTQTFLFLSFAHTECLLLVVMSYDRYVAICHPLRYSAIMTWRVCITLALTSWTLGVLLALIHLVLLLPLPFCRPQKINHFFCEIMAVLKLACADTHINEVMVLAGAISVLVGPLSSIVVSYMCILCAILKIQSGEGQRKAFSTCSSHLCVVGLFYGTAIIMYVGPQYGNPKEQKKYLLLFHSLFNPMLNPLIYSLRNSEVKNTLKRMLEKERAL	sufficiently elevated
consensus OR7D4 (c): consensus olfactory receptor polypeptide (protein, OR7D4 consensus-c, consensus olfactory receptor polypeptide) MEAENHTEVSEFLLLGLSEDPELQPLLFGLFLSMYLVTVLGNLLIILAISSDSHLHTPMYFFLSNLSFVDICFISTTVPKMLVNIQAQSKDISYMGCLTQVYFFMIFAGMDNFLLTVMAYDRFVAICHPLHYTVIMNPRLCGLLVLASWFIIFWVSLVHILLMKRLTFCTGTEIPHFFCELAQVLKVACSDTLINNIVLYVATALLGVFPLTGILFSYSQIVSSLMRMSSTKGKYKAFSTCGSHLSVVSLFYGTGLGVYLSSAVTHSSQSSSIASVMYTVVTPMLNPFIYSLRNKDVKGALGRLLSRAASCP	sufficiently elevated
